- target.or.test.system: Nitric oxide synthase (endothelial, human recombinant) eNOS (Homo sapiens, UniProt P29474)
- protocol: Human eNOS enzyme assay ([3H]L-arginine to [3H]L-citrulline)
- Type: biochemical
- details: human recombinant eNOS; values without parentheses; read-out: heNOS IC50
reported.metric: IC50 (µM)
Give just the numeric value; µM need not be written.

// solved cases for IC50 follow
N=C(Nc1ccc2c(c1)CCCN2C1CCNCC1)c1cccs1 | 156
CN(C)CCN1C(=O)CCCc2cc(NC(=N)c3cccs3)ccc21 | 151
Cl.Cl.N=C(Nc1ccc2c(c1)CCCN2CCN1CCCC1)c1cccs1 [Example 12, dihydrochloride] | 36

What does the record list as IC50 for CN(C)CCCC1Cc2cc(NC(=N)c3cccs3)ccc2NC1=O.Cl.Cl (stereo not drawn) [Example 10, dihydrochloride] ? 10.8

Request the reported IC50 associated with CNCCN1CCCc2ccc(NC(=N)c3cccs3)cc21 22.4
